# PROTOCOL SUMMARY: qHTS for induction of synthetic lethality in tumor cells producing 2HG: qHTS for the HT-1080-NT fibrosarcoma cell line;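 note: NT is the 2HG producing partner of a matched IDH1 knockdown line; nearly all actives have a fitted effect of over 55% in size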
# CONDITIONS USED: HT-1080-NT fibrosarcoma viability, CellTiter-Glo ATP luminescence, 48 h; series mostly up to 46.1 µM
About 6,000 (1.7%) of roughly 360,000 compounds were called active. About 8% were inconclusive and are not listed. Calls come from the whole dose curve; as a rule, active = well fitted cell-killing curve with a large enough effect; inconclusive = small, poorly fitted or top-dose-only effect, or effect the other way; inactive = flat fitted curve, though single readings scatter. The list comes from a sample in which actives are over-represented; it also holds close analogues and randomly drawn compounds.
Outcome codes: 1 (active), -1 (inactive)

- STRUCTURE: "CCOC(=O)[C@]12CCCC=C1N(CCC1=CCCCC1)C(=O)[C@H](CC(=O)NCCCOC)C2"
  LABEL: -1
- STRUCTURE: "CSc1ccccc1NC(=O)COC(=O)CCCOc1ccc(C)cc1"
  LABEL: -1
- STRUCTURE: "CC(C)(C)OC(=O)N1CCN(C(=O)c2[nH]c(C(F)(F)F)nc2-c2ccccc2)CC1"
  LABEL: -1
- STRUCTURE: "CCCCOCCCNC(=O)C[C@@H]1C[C@@]2(C(=O)OCC)CCCC=C2N(CCC2=CCCCC2)C1=O"
  LABEL: 1
- STRUCTURE: "COc1cc([N+](=O)[O-])ccc1NC(=O)COC(=O)CCOc1ccc(C)cc1"
  LABEL: 1

###

# PROTOCOL SUMMARY: qHTS for induction of synthetic lethality in tumor cells producing 2HG: qHTS for the HT-1080-NT fibrosarcoma cell line;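 note: NT is the 2HG producing partner of a matched IDH1 knockdown line; nearly all actives have a fitted effect of over 55% in size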
# CONDITIONS USED: HT-1080-NT fibrosarcoma viability, CellTiter-Glo ATP luminescence, 48 h; series mostly up to 46.1 µM
Hit rate of the full screen: of about 360,000 compounds, about 6,000 (1.7%) were called active. Roughly 8% stayed inconclusive and do not appear here. Calls follow the shape of the dose curve; as a rule, active = well fitted cell-killing curve with a large enough effect; inconclusive = small, poorly fitted or top-dose-only effect, or effect the other way; inactive = flat fitted curve, though single readings scatter. Shown is part of a subset that was picked to be rich in actives.
Outcome codes: 1 = active, -1 = inactive

- MOLECULE: "COc1cc(OC)c(N2CC(C(=O)Nc3cc(Cl)ccc3N3CCOCC3)CC2=O)cc1Cl (stereo unspecified)"
  LABEL: 1
- MOLECULE: "COc1cccc(OCCOc2cccc(/C=N/n3cnnc3)c2)c1"
  LABEL: -1
- MOLECULE: "COc1ccc(CCNC(=O)Nc2ccc3c(c2)c(=O)n(C)n3C)cc1OC"
  LABEL: -1
- MOLECULE: "COc1ccccc1N1CC(C(=O)Nc2ccc(S(=O)(=O)N3CCOCC3)cc2)CC1=O (stereo unspecified)"
  LABEL: -1
- MOLECULE: "O=S(=O)(NCc1cccnc1)c1ccc(Br)s1"
  LABEL: -1
- MOLECULE: "O=C(NCCc1ccccc1)C1CCN(S(=O)(=O)c2ccc(Br)s2)CC1"
  LABEL: -1

###

# PROTOCOL SUMMARY: qHTS for induction of synthetic lethality in tumor cells producing 2HG: qHTS for the HT-1080-NT fibrosarcoma cell line;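 note: NT is the 2HG producing partner of a matched IDH1 knockdown line; nearly all actives have a fitted effect of over 55% in size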
# CONDITIONS USED: HT-1080-NT fibrosarcoma viability, CellTiter-Glo ATP luminescence, 48 h; series mostly up to 46.1 µM
Screen size: about 360,000 compounds; about 6,000 (1.7%) were called active. Inconclusive results (about 8%) are left out. Calls follow the shape of the dose curve; as a rule, active = well fitted cell-killing curve with a large enough effect; inconclusive = small, poorly fitted or top-dose-only effect, or effect the other way; inactive = flat fitted curve, though single readings scatter. The sample holds actives, similar compounds and a random draw of the others, so the mix is not that of the screen.
Outcome codes: t (active), f (inactive)

- COMPOUND: "CN(C)c1cccc(NC(=O)c2ccc(-c3ccc(F)c(F)c3)c3ccoc23)c1"
  LABEL: "f"
- COMPOUND: "O=S(=O)(Nc1ccc(O)c2ccccc12)c1ccc(OC(F)(F)F)cc1"
  LABEL: "t"
- COMPOUND: "COC(=O)[C@]12CCCCC=C1N(Cc1ccc(Cl)cc1Cl)C(=O)[C@H](CC(=O)NCc1cccc3ccccc13)C2"
  LABEL: "f"
- COMPOUND: "C/C(=N\\NC(=O)c1ccoc1C)c1ccccc1O"
  LABEL: "t"
- COMPOUND: "CCCNC(=O)C1(C)CCN(Cc2ccc(Cl)c(Cl)c2)C1 (stereo not given)"
  LABEL: "f"
